- Assay Target: c-Src SH2;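 note: peptide library displayed on the E. coli surface as eCPX fusions, selected cells deep-sequenced, score is each peptide's frequency after selection divided by its frequency in the input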
- Assay Protocol: SH2 binding enrichment of the phosphorylated peptide, bacterial display (enrichment ratio); higher = better substrate or ligand; peptides without Tyr show the background
Assay Metric: SH2 binding enrichment

Chain: LNPDGYKKAFE [CPXM2_Y427_E428K_YF]
Test Value: 0.488

1: MSSLFYANALF [HOXB7_Y6_T9A_YF]
2: DAVKHYMQFRK [CNGA2_Y395]
Between 1 and 2 , which one shows the smaller SH2 binding enrichment number? Answer format: the label of the selected item.
2
(2: 0.461, 1: 0.693)

A: ALLTKYSRSSM [DSCC1_Y374_H376R]
B: CPPELYALMSD [ZAP70_Y569]
C: SVTCTYFPALN [TP53_Y126_S127F]
D: FSNPAYFVLEG [INPPL1_Y986_N982S_YF]
Please rank these sequences by SH2 binding enrichment in descending order. Thanks in advance for listing the labels in the requested order.
D, B, A, C

A: QEGPEYWDEET [HLA-A_Y83_Q86E]
B: FLGEEYVKAVG [TF_Y674_YF]
Select one. Lower SH2 binding enrichment: A or B Choose, then provide that item's label.
B
(B: 0.445, A: 0.646)

A: AKAFIYASHIV [ZNF573_Y229_G224A]
B: RFGKVYKGHLF [ROR2_Y488]
C: EEGNPYYSSAR [MCCC2_Y520]
Descending sort on SH2 binding enrichment required. # list labels per requested ordering
C, A, B
(C: 2.06, A: 0.637, B: 0.331)
